Listed here: items and their measured Kd.
target: T1, biotinylated HLA-A2/WT1126 (…) monomer (human, biotin at a specific biotinylation site at the C-terminus); assay: SPR Biacore T100; biotinylated pMHC captured, antibody injected; 1:1 fit
T1 construct: also called HLA-A2-WT1 monomer; WT1126/HLA-A2
Metric: Kd (nM)

S3.3 scFv (scFv, Soluble scFv, Ni-NTA purified, detected with anti-Flag) scFv: EVQLLESGGGLVQPGGSLRLSCAASGFTFSSYAMSWVRQAPGKGLEWVSLIDPWGQETLYADSVKGRFTISRDNSKNTLYLQMNSLRAEDTAVYYCAKLTGRFDYWGQGTLVTVSSGGGGSGGGGSGGGGSTNIQMTQSPSSLSASVGDRVTITCRASQSISSYLNWYQQKPGKAPKLLIYSASLLQSGVPSRFSGNGSGTDFTLTISSLQPEDFATYYCQQGPGTPNTFGQGTKVEIKRA: 2.43
S3.1 scFv (scFv, Soluble scFv, Ni-NTA purified, detected with anti-Flag) scFv: EVQLLESGGGLVQPGGSLRLSCAASGFTFSSYAMSWVRQAPGKGLEWVSLIDPWGQETLYADSVKGRFTISRDNSKNTLYLQMNSLGAEDTAVYYCAKLTGRFDYWGQGTLVTVSSGGGGSGGGGSGGGGSTDIQMTQSPSSLSASVGDRVTITCRASQSISSYLNWYQQKPGKAPKLLIYSASQLQSGVPSRFSGSGSGTDFTLTISNLQPEDFATYYCQQGPGTPNTFGQGTKVEIKRA: 12.9
Q2L scFv (scFv, Clone45 with VH-Q50L and VL-Q53L; Soluble scFv; also called scFv Q2L) scFv: EVQLLESGGGLVQPGGSLRLSCAASGFTFSSYAMSWVRQAPGKGLEWVSLIDPWGQETLYADSVKGRFTISRDNSKNTLYLQMNSLRAEDTAVYYCAKLTGRFDYWGQGTLVTVSSGGGGSGGGGSGGGGSTDIQMTQSPSSLSASVGDRVTITCRASQSISSYLNWYQQKPGKAPKLLIYSASLLQSGVPSRFSGSGSGTDFTLTISSLQPEDFATYYCQQGPGTPNTFGQGTKVEIKRA: 3.08
